Provide the reported viability, T/C of each item.
Tested on: 966289-007-R4-J1-PDC complex spheroid viability
TEST NAME: Anticancer human tumor 966289-007-R4-J1-PDC patient-derived pancreatic adenocarcinoma cell line growth inhibition [GQUAD]
CONDITIONS USED: second compound 0.316 µM; first compound 10 µM; active compounds read low
Respond with the bare value in %.

Which value of viability, T/C has been reported for CC1COCCN1c1cc(C2(S(C)(=N)=O)CC2)nc(-c2ccnc3[nH]ccc23)n1 (centres undefined) + Cc1cnc(CNC(=O)c2c(=O)c3ccc(N4CCCN(C)CC4)nc3n3c2sc2ccccc23)cn1 in the records?
3.59

Which value of viability, T/C has been reported for C#Cc1c(F)ccc2cc(O)cc(-c3ncc4c(N5CC6CCC(C5)N6)nc(OCC56CCCN5CC(F)C6)nc4c3F)c12 (centres undefined) + CN(C)c1ccc(Nc2c3ccc(NC(=O)CCN4CCCC4)cc3nc3cc(NC(=O)CCN4CCCC4)ccc23)cc1 in the records?
103

Which value of viability, T/C has been reported for COc1cc(C2c3cc4c(cc3C(OC3OC5COC(C)OC5C(O)C3O)C3COC(=O)C23)OCO4)cc(OC)c1O (centres undefined) + Cc1cnc(CNC(=O)c2c(=O)c3ccc(N4CCCN(C)CC4)nc3n3c2sc2ccccc23)cn1 in the records?
1.38

Which value of viability, T/C has been reported for C=CCn1c(=O)c2cnc(Nc3ccc(N4CCN(C)CC4)cc3)nc2n1-c1cccc(C(C)(C)O)n1 + Cc1[nH]c2ccc(F)cc2c1-c1nc2c3cccnc3c3ncccc3c2[nH]1 in the records?
1.74

----------
System: 966289-007-R4-J1-PDC complex spheroid viability
TEST NAME: Anticancer human tumor 966289-007-R4-J1-PDC cell line growth inhibition [GQUAD];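 also: spheroids exposed to the agents for seven days before readout; percent viability relative to DMSO vehicle control wells taken as 100%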
CONDITIONS USED: second compound 1 µM; first compound 0.0316 µM; active compounds read low
Provide the reported viability, T/C of each item.
Respond with the bare value in %.

Which value of viability, T/C has been reported for CC(C)(O)C1CCC(Nc2ccc3ncc(-c4cccc(C(F)(F)F)c4)n3n2)CC1 (configuration not stated) + Cc1[nH]c2ccc(F)cc2c1-c1nc2c3cccnc3c3ncccc3c2[nH]1 in the records?
106

Which value of viability, T/C has been reported for O=C(NO)c1cnc(N2CCN(S(=O)(=O)c3ccc4ccccc4c3)CC2)nc1 + CN(C)c1ccc(Nc2c3ccc(NC(=O)CCN4CCCC4)cc3nc3cc(NC(=O)CCN4CCCC4)ccc23)cc1 in the records?
100

Which value of viability, T/C has been reported for COc1ncnc(C2CC2)c1-c1ncc2cnn(Cc3ccc(-c4nc(C(F)(F)F)cn4C(C)C)cc3)c2n1 + Cc1[nH]c2ccc(F)cc2c1-c1nc2c3cccnc3c3ncccc3c2[nH]1 in the records?
98.2

Which value of viability, T/C has been reported for CC1COCCN1c1cc(-c2ccnn2C)c2ccnc(-c3ccn[nH]3)c2n1 (configuration not stated) + Cc1[nH]c2ccc(F)cc2c1-c1nc2c3cccnc3c3ncccc3c2[nH]1 in the records?
105

Which value of viability, T/C has been reported for COc1cc(C2c3cc4c(cc3C(OC3OC5COC(C)OC5C(O)C3O)C3COC(=O)C23)OCO4)cc(OC)c1O (configuration not stated) + CN(C)c1ccc(Nc2c3ccc(NC(=O)CCN4CCCC4)cc3nc3cc(NC(=O)CCN4CCCC4)ccc23)cc1 in the records?
104

Which value of viability, T/C has been reported for COc1ccc([C@@H](O)c2cc(-c3ncnc4cc(N5CCOCC5)ccc34)c(F)cc2Cl)nn1 + Cc1[nH]c2ccc(F)cc2c1-c1nc2c3cccnc3c3ncccc3c2[nH]1 in the records?
91.3

Which value of viability, T/C has been reported for CC(=O)O[C@H]1C(=O)[C@@]2(C)[C@H]([C@H](OC(=O)c3ccccc3)[C@]3(O)C[C@H](OC(=O)[C@H](O)[C@@H](NC(=O)c4ccccc4)c4ccccc4)C(C)=C1C3(C)C)[C@]1(OC(C)=O)CO[C@@H]1C[C@@H]2O + Cc1cnc(CNC(=O)c2c(=O)c3ccc(N4CCCN(C)CC4)nc3n3c2sc2ccccc23)cn1 in the records?
4.85

Which value of viability, T/C has been reported for CC1COCCN1c1cc(-c2ccnn2C)c2ccnc(-c3ccn[nH]3)c2n1 (configuration not stated) + CN(C)c1ccc(Nc2c3ccc(NC(=O)CCN4CCCC4)cc3nc3cc(NC(=O)CCN4CCCC4)ccc23)cc1 in the records?
107

Which value of viability, T/C has been reported for C=CCn1c(=O)c2cnc(Nc3ccc(N4CCN(C)CC4)cc3)nc2n1-c1cccc(C(C)(C)O)n1 + CN(C)c1ccc(Nc2c3ccc(NC(=O)CCN4CCCC4)cc3nc3cc(NC(=O)CCN4CCCC4)ccc23)cc1 in the records?
95.3

Which value of viability, T/C has been reported for COc1ncnc(C2CC2)c1-c1ncc2cnn(Cc3ccc(-c4nc(C(F)(F)F)cn4C(C)C)cc3)c2n1 + Cc1cnc(CNC(=O)c2c(=O)c3ccc(N4CCCN(C)CC4)nc3n3c2sc2ccccc23)cn1 in the records?
6.44

Which value of viability, T/C has been reported for COc1ccc([C@@H](O)c2cc(-c3ncnc4cc(N5CCOCC5)ccc34)c(F)cc2Cl)nn1 + CN(C)c1ccc(Nc2c3ccc(NC(=O)CCN4CCCC4)cc3nc3cc(NC(=O)CCN4CCCC4)ccc23)cc1 in the records?
101

Which value of viability, T/C has been reported for COc1ncnc(C2CC2)c1-c1ncc2cnn(Cc3ccc(-c4nc(C(F)(F)F)cn4C(C)C)cc3)c2n1 + CN(C)c1ccc(Nc2c3ccc(NC(=O)CCN4CCCC4)cc3nc3cc(NC(=O)CCN4CCCC4)ccc23)cc1 in the records?
93.9

----------
Test system: 966289-007-R4-J1-PDC complex spheroid viability
TEST NAME: Anticancer human tumor 966289-007-R4-J1-PDC cell line growth inhibition [GQUAD];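 also: spheroids exposed to the agents for seven days before readout; percent viability relative to DMSO vehicle control wells taken as 100%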
CONDITIONS USED: second compound 3.16 µM; first compound 0.1 µM; active compounds read low
READOUT KIND: viability, T/C

Which value of viability, T/C has been reported for C=CCn1c(=O)c2cnc(Nc3ccc(N4CCN(C)CC4)cc3)nc2n1-c1cccc(C(C)(C)O)n1 + Cc1[nH]c2ccc(F)cc2c1-c1nc2c3cccnc3c3ncccc3c2[nH]1 in the records?
109%

Which value of viability, T/C has been reported for COc1ccc([C@@H](O)c2cc(-c3ncnc4cc(N5CCOCC5)ccc34)c(F)cc2Cl)nn1 + Cc1[nH]c2ccc(F)cc2c1-c1nc2c3cccnc3c3ncccc3c2[nH]1 in the records?
103%

Which value of viability, T/C has been reported for C=CCn1c(=O)c2cnc(Nc3ccc(N4CCN(C)CC4)cc3)nc2n1-c1cccc(C(C)(C)O)n1 + CN(C)c1ccc(Nc2c3ccc(NC(=O)CCN4CCCC4)cc3nc3cc(NC(=O)CCN4CCCC4)ccc23)cc1 in the records?
104%

Which value of viability, T/C has been reported for COc1cc(C2c3cc4c(cc3C(OC3OC5COC(C)OC5C(O)C3O)C3COC(=O)C23)OCO4)cc(OC)c1O (centres undefined) + CN(C)c1ccc(Nc2c3ccc(NC(=O)CCN4CCCC4)cc3nc3cc(NC(=O)CCN4CCCC4)ccc23)cc1 in the records?
108%

Which value of viability, T/C has been reported for COc1cc(C2c3cc4c(cc3C(OC3OC5COC(C)OC5C(O)C3O)C3COC(=O)C23)OCO4)cc(OC)c1O (centres undefined) + Cc1[nH]c2ccc(F)cc2c1-c1nc2c3cccnc3c3ncccc3c2[nH]1 in the records?
99.6%

Which value of viability, T/C has been reported for CC(=O)O[C@H]1C(=O)[C@@]2(C)[C@H]([C@H](OC(=O)c3ccccc3)[C@]3(O)C[C@H](OC(=O)[C@H](O)[C@@H](NC(=O)c4ccccc4)c4ccccc4)C(C)=C1C3(C)C)[C@]1(OC(C)=O)CO[C@@H]1C[C@@H]2O + CN(C)c1ccc(Nc2c3ccc(NC(=O)CCN4CCCC4)cc3nc3cc(NC(=O)CCN4CCCC4)ccc23)cc1 in the records?
3.06%

Which value of viability, T/C has been reported for Nc1ccn(C2OC(CO)C(O)C2(F)F)c(=O)n1 (centres undefined) + Cc1[nH]c2ccc(F)cc2c1-c1nc2c3cccnc3c3ncccc3c2[nH]1 in the records?
1.2%

Which value of viability, T/C has been reported for CC1COCCN1c1cc(-c2ccnn2C)c2ccnc(-c3ccn[nH]3)c2n1 (centres undefined) + CN(C)c1ccc(Nc2c3ccc(NC(=O)CCN4CCCC4)cc3nc3cc(NC(=O)CCN4CCCC4)ccc23)cc1 in the records?
94.3%

Which value of viability, T/C has been reported for CC(C)(O)C1CCC(Nc2ccc3ncc(-c4cccc(C(F)(F)F)c4)n3n2)CC1 (centres undefined) + CN(C)c1ccc(Nc2c3ccc(NC(=O)CCN4CCCC4)cc3nc3cc(NC(=O)CCN4CCCC4)ccc23)cc1 in the records?
98.7%
